- Experimental system: human mGluR2 receptor (Homo sapiens, UniProt Q14416)
- Construct: expressed in transfected cells; host or cells: CHO cells
- Sequence (Q14416 19-872): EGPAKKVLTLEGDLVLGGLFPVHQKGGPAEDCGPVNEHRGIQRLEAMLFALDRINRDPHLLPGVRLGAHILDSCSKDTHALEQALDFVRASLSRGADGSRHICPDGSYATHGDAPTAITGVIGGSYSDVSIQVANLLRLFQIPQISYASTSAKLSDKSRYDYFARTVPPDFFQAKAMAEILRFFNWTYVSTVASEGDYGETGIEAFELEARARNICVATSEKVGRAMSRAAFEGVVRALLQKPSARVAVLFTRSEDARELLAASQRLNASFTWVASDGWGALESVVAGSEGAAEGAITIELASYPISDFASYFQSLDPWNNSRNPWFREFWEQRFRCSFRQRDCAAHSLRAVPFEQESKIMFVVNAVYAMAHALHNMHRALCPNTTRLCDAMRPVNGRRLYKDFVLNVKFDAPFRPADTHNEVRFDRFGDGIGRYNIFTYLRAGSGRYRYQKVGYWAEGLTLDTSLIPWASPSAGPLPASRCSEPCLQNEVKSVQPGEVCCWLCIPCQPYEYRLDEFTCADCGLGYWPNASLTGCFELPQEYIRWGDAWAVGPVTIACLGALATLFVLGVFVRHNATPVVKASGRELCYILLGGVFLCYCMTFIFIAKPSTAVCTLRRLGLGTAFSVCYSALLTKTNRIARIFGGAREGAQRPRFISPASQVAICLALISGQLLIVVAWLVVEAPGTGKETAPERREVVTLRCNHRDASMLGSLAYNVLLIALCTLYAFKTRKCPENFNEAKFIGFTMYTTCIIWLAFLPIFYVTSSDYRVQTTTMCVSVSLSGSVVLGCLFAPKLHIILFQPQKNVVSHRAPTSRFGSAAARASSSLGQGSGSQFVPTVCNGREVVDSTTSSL
- Assay comment: [35S]GTPγS binding assay (PAM assay) using membranes from cells transfected with the human mGluR2 receptor
- Type: biochemical
- Study conditions: membranes of CHO cells with human mGluR2; glutamate at predetermined EC25 concentration; averages of duplicate values of 11-concentration response curves; read-out: GTPγS - hR2 PAM pEC50 (converted)
Measured attribute: EC50 (nM)

[A] CCCc1cnc2c(C#N)c(N3CCC(O)(c4ccccc4)CC3)ccn12
[B] Fc1ccccc1N1CCN(Cc2ccn3c(CC(F)(F)F)cnc3c2Cl)CC1
[C] N#Cc1c(-c2ccc(C(F)(F)c3ccccc3)cc2)ccn2c(CC(F)(F)F)cnc12
Exercise: # descending EC50 order for the listed compounds Write the labels, ordered according to the request.
Key: B, A, C
(B: 1740 nM, A: 316 nM, C: 214 nM)

---

Measured attribute: melting point (°C)

Chemical smiles	Reading unit	melting point
Fc1ccc(N2CCN(Cc3ccn4c(CC(F)(F)F)cnc4c3Cl)CC2)c(F)c1	°C	156.9
COc1cccc(C2(O)CCN(Cc3ccn4c(CC(F)(F)F)cnc4c3C#N)CC2)c1	°C	196
FC(F)(F)Cc1cnc2c(Cl)c(CN3CCN(c4ncccn4)CC3)ccn12	°C	161.4
FC(F)(F)Cc1cnc2c(Cl)c(CN3CCC(F)(c4ccccc4)CC3)ccn12	°C	154.8
N#Cc1c(CN2CCC(c3ccccc3F)CC2)ccn2c(CC(F)(F)F)cnc12	°C	152
CCCc1cnc2c(C#N)c(N3CCC(c4ccccc4)CC3)ccn12	°C	161
N#Cc1c(-c2ccc(N[C@H]3CC[C@H](O)CC3)cc2)ccn2c(CC(F)(F)F)cnc12	°C	137.5
N#Cc1c(-c2ccc(Oc3ccc(F)cc3)cc2)ccn2c(CC(F)(F)F)cnc12	°C	163
Fc1ccccc1C1CCN(Cc2ccn3c(CC(F)(F)F)cnc3c2Cl)CC1	°C	161.1
FC(F)(F)Cc1cnc2c(Cl)c(N3CCC4(CC3)OCc3ccccc34)ccn12	°C	174.4
CC(C)(O)c1ccc(C2CCN(c3ccn4c(CC(F)(F)F)cnc4c3C#N)CC2)cc1	°C	155.4
C[C@]1(O)CC[C@H](Nc2ccc(-c3ccn4c(CC(F)(F)F)cnc4c3Cl)cc2Cl)CC1	°C	205.1
N#Cc1c(CN2CCC(O)(c3ccc(F)cc3)CC2)ccn2c(CC(F)(F)F)cnc12	°C	181.2

---

- Experimental system: human mGluR2 receptor (Homo sapiens)
- Construct: expressed in transfected cells; host or cells: CHO cells
- Assay comment: [35S]GTPγS binding assay (PAM assay) using membranes from cells transfected with the human mGluR2 receptor
- Type: biochemical
- Study conditions: membranes of CHO cells with human mGluR2; glutamate at predetermined EC25 concentration; averages of duplicate values of 11-concentration response curves; read-out: GTPγS - hR2 PAM pEC50 (converted)
Measured attribute: EC50 (nM)

Chemical smiles	Measured attribute	Reading unit	Endpoint value
N#Cc1c(-c2ccc(N[C@H]3CC[C@H](O)CC3)c(Cl)c2)ccn2c(CC(F)(F)F)cnc12	EC50	nM	295

[a] FC(F)(F)Cc1cnc2c(Cl)c(CN3CCC4(CC3)COc3ccccc3O4)ccn12
[b] N#Cc1c(N2CCC(c3ccccc3)(N3CCOCC3)CC2)ccn2c(CC(F)(F)F)cnc12
[c] N#Cc1c(N2CCC3(CCc4ccccc4O3)CC2)ccn2c(CC(F)(F)F)cnc12
[d] Cc1ccnc(N2CCN(c3ccn4c(CC(F)(F)F)cnc4c3C#N)CC2)n1
Exercise: Returns the items ordered by EC50, from maximum to minimum. Output the labels ranked as instructed.
Key: b, a, d, c
